# TARGET_UNDER_TEST: M1 (Homo sapiens, UniProt P11229)
# Sequence (P11229 whole entry): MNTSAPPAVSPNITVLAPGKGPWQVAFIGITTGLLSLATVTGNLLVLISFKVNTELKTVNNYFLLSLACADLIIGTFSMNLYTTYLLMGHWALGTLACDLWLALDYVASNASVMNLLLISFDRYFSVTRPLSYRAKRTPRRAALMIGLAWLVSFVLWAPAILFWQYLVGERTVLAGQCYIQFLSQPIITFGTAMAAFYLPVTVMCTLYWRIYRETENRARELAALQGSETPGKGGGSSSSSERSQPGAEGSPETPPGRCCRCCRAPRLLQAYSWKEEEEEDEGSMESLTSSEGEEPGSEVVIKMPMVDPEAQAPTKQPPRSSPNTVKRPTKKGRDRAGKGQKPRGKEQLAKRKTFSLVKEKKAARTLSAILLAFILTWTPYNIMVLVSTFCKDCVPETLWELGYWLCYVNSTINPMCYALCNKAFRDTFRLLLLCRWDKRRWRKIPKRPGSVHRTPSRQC
# EXPERIMENT_DESCRIPTION: Muscarinic M1 receptor Ki determination (NIMH PDSP)
# Assay type: binding
# Description: The compounds from the above Examples were tested for Sigma-1 and muscarinic M1-M5) activities. Ki determinations were generously provided by the National Institute of Mental Health's Psychoactive Drug Screening Program (PDSP), Contract #HHSN-271-2013-00017-C (NIMH PDSP). The NIMH PDSP is directed by Bryan L. Roth M D, PhD at the University of North Carolina at Chapel Hill and Project Officer Jamie Driscoll at NIMH, Bethesda Md., USA. […]
RESULT_TYPE: pKi
Numbers only, as −log10 of the molar value.

// pKi lookup, key: CN(CCCC1(c2ccc(F)cc2)OCc2cc(C#N)ccc21)C1=NCCCC1 (stereo not shown) 5.82

The origin of these recorded values is patent US9517232B2.
